# Study Target: Androgen receptor (Homo sapiens)
# Assay Method Text: qHTS assay to identify small molecule agonists of the androgen receptor (AR) signaling pathway (AID 743036); as to activation: % is scaled to controls: 0 for no effect and ±100 for the full control effect
# Test Conditions: HEK293 AR-UAS-bla GripTite, beta-lactamase FRET ratio, 16 h; series mostly up to 62.4 µM
Records with an inconclusive call do not appear. Active and inactive are the calls of the source. Calls follow the shape of the dose curve; as a rule, active = well fitted activation curve with a large enough effect in the signal ratio in the repeat runs, with a control signal flat (not every such curve was filed as active); inconclusive = weak or mixed curves, or effect the other way; inactive = no such curve, though single readings can be large or run the other way; the % refers to the signal ratio.
Bench note: report the call from 1 = active, 0 = inactive

Solved cases below.
| Query Smiles | Class |
| --- | --- |
| Oc1c(Br)c(Br)c(Br)c(Br)c1Br | 0 |
| CCCSP(=O)(OCC)SCCC | 0 |

## Task Please share the test call associated with "O=c1oc2ccccc2c(O)c1Cc1c(O)c2ccccc2oc1=O" .
## Result 0

## Task Look up the recorded call for "O=C(CCl)Nc1ccccc1" in this test.
## Result 0

## Task What classification did "C[C@]12Cc3nonc3C[C@@H]1CC[C@@H]1[C@@H]2CC[C@@]2(C)[C@H]1CC[C@]2(C)O" end up with in this test?
## Result 1

## Task Per the records of this test, what outcome belongs to "CCN(CC)c1c([N+](=O)[O-])cc(C(F)(F)F)c(N)c1[N+](=O)[O-]" ?
## Result 0

----------
# Assay Method Text: qHTS assay to identify small molecule antagonists of the sonic hedgehog signaling (Shh) pathway (AID 1259369); also: nearly all actives have a fitted effect of over 45% in size
# Test Conditions: NIH/3T3 Gli1-Luc reporter, Shh antagonist, luminescence 24 h; series mostly up to 92.4 µM
Inconclusive results are not listed. Calls of active or inactive are those of the source. Calls follow the shape of the full dose curve.
Your response should consist of one outcome taken from 1 (active), 0 (inactive)

## Task Lab log entry: C[C@H]1CC[C@@H]2[C@@H](C)[C@H]3[C@H](C[C@H]4[C@@H]5CC=C6CC(O[C@@H]7O[C@H](CO)[C@H](O)[C@H](O[C@@H]8O[C@H](CO)[C@@H](O)[C@H](O)[C@H]8O)[C@H]7O[C@H]7O[C@@H](C)[C@H](O)[C@@H](O)[C@H]7O)CC[C@]6(C)[C@H]5CC[C@]34C)N2C1 (stereo partly specified) — outcome as called in the assay?
## Result 0

## Task # fetch the recorded call for OC(Cc1ccccc1Cl)(Cn1cncn1)C1(Cl)CC1 (stereo unspecified) here
## Result 1

----------
# Assay Method Text: qHTS assay to identify small molecule antagonists of the farnesoid-X-receptor (FXR) signaling pathway - cell viability counter screen (AID 743221); also: nearly all actives have a fitted effect of over 50% in size
# Test Conditions: FXR-bla HEK293T viability, CellTiter-Glo luminescence, 16 h; series mostly up to 62.6 µM
Inconclusive results are not listed. Calls of active or inactive are those of the source. The call rests on the fitted dose curve; in most records, active means well fitted cell-killing curve with a large enough effect in the repeat runs (not every such curve was filed as active); inconclusive means weak or mixed curves, or effect the other way; inactive means no such curve, though single readings can be large or run the other way.
Your answer must be one of the following: active, inactive

Solved cases (10 shown):
| Compound | Class |
| --- | --- |
| Nc1ccc(Cc2ccc(N)c(Cl)c2)cc1Cl | inactive |
| Clc1ccc(-c2ccc(Cl)c(Cl)c2Cl)c(Cl)c1Cl | inactive |
| ClC1=C(Cl)C2(Cl)C3C(Cl)C(Cl)CC3C1(Cl)C2(Cl)Cl (stereo not drawn) | active |
| C[C@]12Cc3nonc3C[C@@H]1CC[C@@H]1[C@@H]2CC[C@@]2(C)[C@H]1CC[C@]2(C)O | inactive |
| CC(=O)[O-].CC(=O)[O-].O.O.[Cd+2] | active |
| CC(C)CC(C)N (stereo not drawn) | inactive |
| CCN(CC)C(=S)[S-].CCN(CC)C(=S)[S-].[Zn+2] | active |
| FC(Cl)(Cl)Cl | inactive |
| ClCc1ccc(Cl)cc1Cl | inactive |
| CSCCCN=C=S | inactive |

## Task // outcome(item) with item = CC1(C)C(/C=C(\Cl)C(F)(F)F)C1C(=O)OC(C#N)c1cccc(Oc2ccccc2)c1 (stereo not drawn)
## Result inactive

## Task Fill in: this test's call for CCCCCCCCCCCCCN1CC(C)OC(C)C1 (stereo not drawn) is ___
## Result inactive

## Task Test call for this compound, please: "CC[C@H](C)[C@H]1O[C@]2(C=C[C@@H]1C)C[C@@H]1C[C@@H](C/C=C(\C)[C@@H](O[C@H]3C[C@H](OC)[C@@H](O[C@H]4C[C@H](OC)[C@@H](O)[C@H](C)O4)[C@H](C)O3)[C@@H](C)/C=C/C=C3\CO[C@@H]4[C@H](O)C(C)=C[C@@H](C(=O)O1)[C@]34O)O2"
## Result active

## Task Look up the recorded call for COc1cc(N)c(Cl)cc1C(=O)NC1CN2CCC1CC2 (stereo not drawn) in this test.
## Result inactive

## Task Hi, do you know how "[CH3][Hg][Cl]" came out in this test?
## Result active
